- System: trypsin
- MEASUREMENT NOTES: in vitro
- ASSAY CONTEXT: isolated enzyme trypsin
MEASURE: half-life at 100 µM (min)

- CC(=O)N[C@@H](CC(N)=O)C(=O)N[C@@H](CC(C)C)C(=O)N[C@@H](CO)C(=O)N[C@@H](CCC(=O)O)C(=O)N[C@@H](CC(C)C)C(=O)N[C@@H](CC(=O)O)C(=O)N[C@@H](CCCNC(=N)N)C(=O)N[C@@H](CC(C)C)C(=O)N[C@@H](CC(C)C)C(=O)N[C@@H](CC(C)C)C(=O)N[C@@H](CCC(=O)O)C(=O)N[C@@H](CC(C)C)C(=O)N[C@@H](CC(N)=O)C(N)=O [LD2, reference compound]: 47

====

- MEASURED ON: FAK FAT domain (Homo sapiens, UniProt Q05397)
- Sequence (Q05397 914-1045 limits assumed): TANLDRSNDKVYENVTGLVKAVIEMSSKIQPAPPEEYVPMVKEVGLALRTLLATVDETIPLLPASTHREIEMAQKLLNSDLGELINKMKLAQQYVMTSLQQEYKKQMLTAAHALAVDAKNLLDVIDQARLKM
- MEASUREMENT NOTES: SPR binding to immobilized biotinylated FAK FAT
- ASSAY CONTEXT: Rep2; read-out: SPR (KD)
pKd: −log10 of the molar value. Bridge positions count the residues as written; N and C are the ends. Square brackets hold non-standard residues; d marks the D form. Peptide text beside a SMILES is read from it. R5 = C=CCCC[C@@](C)(N)C(=O)O; S5 = C=CCCC[C@](C)(N)C(=O)O
MEASURE: pKd

* CC(=O)N[C@@H](CC(N)=O)C(=O)N[C@@H](CC(C)C)C(=O)N[C@@H](CO)C(=O)N[C@@H](CCC(=O)O)C(=O)N[C@@H](CC(C)C)C(=O)N[C@@H](CC(=O)O)C(=O)N[C@@H](CCCNC(=N)N)C(=O)N[C@@H](CC(C)C)C(=O)N[C@]1(C)CCCC=CCCC[C@@](C)(C(=O)N[C@@H](CC(N)=O)C(N)=O)NC(=O)[C@H](CCC(=O)O)NC(=O)[C@H](CC(C)C)NC1=O [compound 1921] (Ac-NLSELDRL[R5]LE[S5]N-NH2; staple 9-12) | < 3.70

====

- Tested on: trypsin
- MEASUREMENT NOTES: Trypsin proteolytic resistance assay
- ASSAY CONTEXT: immobilized trypsin-agarose resin
Bridge positions count the residues as written; N and C are the ends. Square brackets hold non-standard residues; d marks the D form. Peptide text beside a SMILES is read from it. * marks the point of attachment. Myristoyl = CCCCCCCCCCCCCC(=O)*; R8 = C=CCCCCCC[C@@](C)(N)C(=O)O; S5 = C=CCCC[C@](C)(N)C(=O)O
Listed here are molecules together with their documented remaining at 4 h, 100 µM.
MEASURE: remaining at 4 h, 100 µM (%)

* CC(=O)N[C@@H](CC(N)=O)C(=O)N[C@@H](CC(C)C)C(=O)N[C@]1(C)CCCCCCC=CCCC[C@@](C)(C(=O)N[C@@H](CCC(=O)O)C(=O)N[C@@H](CC(C)C)C(=O)N[C@@H](CC(N)=O)C(N)=O)NC(=O)[C@H](CC(C)C)NC(=O)[C@H](CC(C)C)NC(=O)[C@H](CCCNC(=N)N)NC(=O)[C@H](CC(=O)O)NC(=O)[C@H](CC(C)C)NC(=O)[C@H](CCC(=O)O)NC1=O [compound 1907] | 58
* CCCCCCCCCCCCCC(=O)N[C@@H](CC(N)=O)C(=O)N[C@@H](CC(C)C)C(=O)N[C@]1(C)CCCCCCC=CCCC[C@@](C)(C(=O)N[C@@H](CCC(=O)O)C(=O)N[C@@H](CCC(=O)O)C(=O)N[C@@H](CC(N)=O)C(N)=O)NC(=O)[C@H](CC(C)C)NC(=O)[C@H](CC(C)C)NC(=O)[C@H](CCCNC(=N)N)NC(=O)[C@H](CC(=O)O)NC(=O)[C@H](CCC(=O)O)NC(=O)[C@H](CCC(=O)O)NC1=O [compound 2020] (Myristoyl-NL[R8]EEDRLL[S5]EEN-NH2; staple 3-10) | 92
* CC(=O)N[C@@H](CC(N)=O)C(=O)N[C@@H](CC(C)C)C(=O)N[C@@H](CO)C(=O)N[C@@H](CCC(=O)O)C(=O)N[C@@H](CC(C)C)C(=O)N[C@@H](CC(=O)O)C(=O)N[C@@H](CCCNC(=N)N)C(=O)N[C@@H](CC(C)C)C(=O)N[C@@H](CC(C)C)C(=O)N[C@@H](CC(C)C)C(=O)N[C@@H](CCC(=O)O)C(=O)N[C@@H](CC(C)C)C(=O)N[C@@H](CC(N)=O)C(N)=O [LD2, reference compound] | 13

====

- Tested on: trypsin
- MEASUREMENT NOTES: Trypsin proteolytic resistance assay
- ASSAY CONTEXT: immobilized trypsin-agarose resin
MEASURE: half-life at 100 µM (h)

- CC(=O)N[C@@H](CC(N)=O)C(=O)N[C@@H](CC(C)C)C(=O)N[C@]1(C)CCCCCCC=CCCC[C@@](C)(C(=O)N[C@@H](CCC(=O)O)C(=O)N[C@@H](CC(C)C)C(=O)N[C@@H](CC(N)=O)C(N)=O)NC(=O)[C@H](CC(C)C)NC(=O)[C@H](CC(C)C)NC(=O)[C@H](CCCNC(=N)N)NC(=O)[C@H](CC(=O)O)NC(=O)[C@H](CC(C)C)NC(=O)[C@H](CCC(=O)O)NC1=O: 28.4

====

- MEASUREMENT NOTES: in vivo
- ASSAY CONTEXT: female, Balb/cJ, mouse, ip, 2012 concentration
MEASURE: level at 0.5 h (ng/mL)

- CCCCCCCCCCCCCC(=O)N[C@@H](CC(N)=O)C(=O)N[C@@H](CC(C)C)C(=O)N[C@]1(C)CCCCCCC=CCCC[C@@](C)(C(=O)N[C@@H](CCC(=O)O)C(=O)N[C@@H](CC(C)C)C(=O)N[C@@H](CC(N)=O)C(N)=O)NC(=O)[C@H](CC(C)C)NC(=O)[C@H](CC(C)C)NC(=O)[C@H](CCCNC(=N)N)NC(=O)[C@H](CC(=O)O)NC(=O)[C@H](CC(C)C)NC(=O)[C@H](CCC(=O)O)NC1=O: 11400

====

Listed here are compounds together with their documented pKd.
- MEASURED ON: FAK FAT domain (Homo sapiens, UniProt Q05397)
- MEASUREMENT NOTES: SPR binding to immobilized biotinylated FAK FAT
- ASSAY CONTEXT: one-site kinetic fit, mean ± SD of n = 2-5 biological replicates, Tris pH 8.0; read-out: SPR KD
pKd: −log10 of the molar value. Bridge positions count the residues as written; N and C are the ends. Square brackets hold non-standard residues; d marks the D form. Peptide text beside a SMILES is read from it. R8 = C=CCCCCCC[C@@](C)(N)C(=O)O; S5 = C=CCCC[C@](C)(N)C(=O)O
MEASURE: pKd

* CC(=O)N[C@@H](CC(N)=O)C(=O)N[C@@H](CC(C)C)C(=O)N[C@@H](CO)C(=O)N[C@@H](CCC(=O)O)C(=O)N[C@]1(C)CCCCCCC=CCCC[C@@](C)(C(=O)N[C@@H](CC(N)=O)C(N)=O)NC(=O)[C@H](CCC(=O)O)NC(=O)[C@H](CC(C)C)NC(=O)[C@H](CC(C)C)NC(=O)[C@H](CC(C)C)NC(=O)[C@H](CCCNC(=N)N)NC(=O)[C@H](CC(=O)O)NC1=O [compound 1914] (Ac-NLSE[R8]DRLLLE[S5]N-NH2; staple 5-12) | 3.92
* CC(=O)N[C@@H](CC(N)=O)C(=O)N[C@]1(C)CCCCCCC=CCCC[C@@](C)(C(=O)N[C@@H](CC(C)C)C(=O)N[C@@H](CCC(=O)O)C(=O)N[C@@H](CC(C)C)C(=O)N[C@@H](CC(N)=O)C(N)=O)NC(=O)[C@H](CC(C)C)NC(=O)[C@H](CCCNC(=N)N)NC(=O)[C@H](CC(=O)O)NC(=O)[C@H](CC(C)C)NC(=O)[C@H](CCC(=O)O)NC(=O)[C@H](CO)NC1=O [compound 2017] (Ac-N[R8]SELDRL[S5]LELN-NH2; staple 2-9) | 4.55
* CC(=O)N[C@@H](CC(N)=O)C(=O)N[C@@H](CC(C)C)C(=O)N[C@@H](CO)C(=O)N[C@@H](CCC(=O)O)C(=O)N[C@@]1(C)CCCC=CCCC[C@@](C)(C(=O)N[C@@H](CC(C)C)C(=O)N[C@@H](CCC(=O)O)C(=O)N[C@@H](CC(C)C)C(=O)N[C@@H](CC(N)=O)C(N)=O)NC(=O)[C@H](CC(C)C)NC(=O)[C@H](CCCNC(=N)N)NC(=O)[C@H](CC(=O)O)NC1=O [compound 1919] (Ac-NLSE[S5]DRL[S5]LELN-NH2; staple 5-9) | 4.09
* CC(=O)N[C@@H](CC(N)=O)C(=O)N[C@@H](CC(C)C)C(=O)N[C@]1(C)CCCCCCC=CCCC[C@@](C)(C(=O)N[C@@H](CCC(=O)O)C(=O)N[C@@H](CC(C)C)C(=O)N[C@@H](CC(N)=O)C(N)=O)NC(=O)[C@H](CC(C)C)NC(=O)[C@H](CC(C)C)NC(=O)[C@H](CCCNC(=N)N)NC(=O)[C@H](CC(=O)O)NC(=O)[C@H](CC(C)C)NC(=O)[C@H](C)NC1=O [compound 2009] | 5.47
* CC(=O)N[C@@H](CC(N)=O)C(=O)N[C@@H](CC(C)C)C(=O)N[C@]1(C)CCCCCCC=CCCC[C@@](C)(C(=O)N[C@@H](CCC(N)=O)C(=O)N[C@@H](CC(C)C)C(=O)N[C@@H](CC(N)=O)C(N)=O)NC(=O)[C@H](CC(C)C)NC(=O)[C@H](CC(C)C)NC(=O)[C@H](CCCNC(=N)N)NC(=O)[C@H](CC(=O)O)NC(=O)[C@H](CC(C)C)NC(=O)[C@H](CCC(N)=O)NC1=O [compound 1910] (Ac-NL[R8]QLDRLL[S5]QLN-NH2; staple 3-10) | 4.65
* CC(=O)N[C@@H](CC(N)=O)C(=O)N[C@@H](CC(C)C)C(=O)N[C@@H](CO)C(=O)N[C@]1(C)CCCCCCC=CCCC[C@@](C)(C(=O)N[C@@H](CC(C)C)C(=O)N[C@@H](CC(N)=O)C(N)=O)NC(=O)[C@H](CC(C)C)NC(=O)[C@H](CC(C)C)NC(=O)[C@H](CC(C)C)NC(=O)[C@H](CCCNC(=N)N)NC(=O)[C@H](CC(=O)O)NC(=O)[C@H](CC(C)C)NC1=O [compound 1905] (Ac-NLS[R8]LDRLLL[S5]LN-NH2; staple 4-11) | 3.84
* CC(=O)N[C@@H](CC(N)=O)C(=O)N[C@@H](CC(C)C)C(=O)N[C@]1(C)CCCCCCC=CCCC[C@@](C)(C(=O)N[C@@H](CCC(=O)O)C(=O)N[C@@H](CC(C)C)C(=O)N[C@@H](CC(N)=O)C(N)=O)NC(=O)[C@H](Cc2c[nH]c3ccccc23)NC(=O)[C@H](CC(C)C)NC(=O)[C@H](CCCNC(=N)N)NC(=O)[C@H](CC(=O)O)NC(=O)[C@H](CC(C)C)NC(=O)[C@H](CCC(=O)O)NC1=O [compound 2007] | 4.22

Just for reference, paper PMC11871066 is where these values come from.
